tested on: HOP-62 NSCLC; experiment: NCI tumour cell line growth inhibition, 48 h
Would you mind telling me the reported GI50 of each entry?

Query: Look at this compound and give its reported GI50. COC(=O)c1cc(NC(=O)CN(CCN(CC(=O)O)CC(=O)Nc2ccc(O)c(C(=O)OC)c2)CC(=O)O)ccc1O
Response: 42.3 µM

Query: // query: COc1cc(C2C(C(=O)OCc3ccccc3)=C(C)NC(C)=C2C(=O)OCc2ccccc2)cc(OC)c1OC
Response: 12.1 µM

Query: Another: CCNC(=O)c1ccc2c(c1)nc(-c1ccc(Cl)cc1)n2-c1cc(C(C)(C)C)[nH]n1
Response: 5.41 µM

Query: Proceed to CC(=O)Nc1ccc(S(=O)(=O)c2ccc(NC(C)=O)cc2)cc1
Response: > 100 µM

Query: What about this compound? C(=C\c1nc2ccccc2s1)/c1ccc(N2CCOCC2)s1
Response: 45.5 µM
